The measurements presented in this section are drawn from patent US8741947B2.

// reported Ki per item
# system: Chromaffin Granule Membrane V-ATPase
# test summary: V-ATPase inhibitory assay, chromaffin granule membrane
# Format: biochemical
# recorded conditions: Chromaffin Granule Membrane V-ATPase (bovine); read-out: V-ATPase (Ki, nM) CGM

molecule	comparison operator	Ki / nM
COC(=O)C(C)(C)C(O)C(C)C(=O)C(C)(C)C=CC(=O)NC(C(O)C(C)C)C(O)C(C)C=C(C)C(O)C(C)CCC(O)C(C)C(=O)NC1C(C)OC(=O)C(C(O)C(=O)O)NC(=O)C=CC=CCCC=CC=CCC2CC(C)CC(CC(O)C(C)C(O)C(C)=CC(C)C(O)C(C)=CCC(OC(=O)CC(O)C(=O)O)C(C)C1O)O2 (stereo not drawn) [Chondropsin D, chondropsin D]	>	10000
COC(=O)C(C)(C)C(O)C(C)C(=O)C(C)(C)C=CC(=O)NC(C(O)C(C)C)C(O)C(C)C=C(C)C(O)C(C)CCC(O)C(C)C(=O)NC(C(C)O)C1OC(=O)C(C(O)C(=O)O)NC(=O)C=CC=CCCC=CC=CCC2CC(C)CC(CC(O)C(C)C(O)C(C)=CC(C)C(O)C(C)=CCC(O)C1C)O2 (stereo not drawn) [Chondropsin B, chondropsin B]	=	6000
COC(=O)C(C)(C)C(O)C(C)C(=O)C(C)(C)C=CC(=O)NC(CC(C)C)C(O)C(C)C=C(C)C(O)C(C)CCC(O)C(C)C(=O)NC(C(C)O)C1OC(=O)C(C(O)C(=O)O)NC(=O)C=CC=CCCC=CC=CCC2CC(C)CC(CC(O)C(C)C(O)C(C)=CC(C)C(O)C(C)=CCC(OC(=O)CC(O)C(=O)O)C1C)O2 (stereo not drawn) [Chondropsin A, 73-deoxy, 73-deoxychondropsin A]	=	3000
COC(=O)C(O)CC(=O)OC1CC=C(C)C(O)C(C)C=C(C)C(O)C(C)C(O)CC2CC(C)CC(CC=CC=CCCC=CC=CC(=O)NC(C(O)C(=O)OC)C(=O)OC(C(NC(=O)C(C)C(O)CCC(C)C(O)C(C)=CC(C)C(O)C(NC(=O)C=CC(C)(C)C(=O)C(C)C(O)C(C)(C)C(=O)OC)C(O)C(C)C)C(C)O)C1C)O2 (stereo not drawn) [Chondropsin A, dimethyl ester, chondropsin A dimethyl ester]	=	500
CC1=CCC(OC(=O)CC(O)C(=O)O)C(C)C(C(NC(=O)C(C)C(O)CCC(C)C(O)C(C)=CC(C)C(O)C(CC(C)C)NC(=O)C=CC(C)(C)C(=O)C(C)C(O)C(C)C)C(C)O)OC(=O)C(C(O)C(=O)O)NC(=O)C=CC=CCCC=CC=CCC2CC(C)CC(CC(O)C(C)C(O)C(C)=CC(C)C1O)O2 (stereo not drawn) [Chondropsin C, chondropsin C]	=	3000
CO/C1=C\C(C)=C\[C@@H](C)[C@@H](O)[C@@H](C)C/C(C)=C/C=C/[C@H](OC)[C@@H]([C@@H](C)[C@@H](O)[C@H](C)[C@@]2(O)C[C@@H](O)[C@H](C)[C@@H](C(C)C)O2)OC1=O [Bafilomycin A1, bafilomycin A1, reference compound]	=	6
